All values here come from the supplement of paper PMC9170038.

# Test system: MS2 coat protein
# protocol_summary: apparent KD of MS2 coat protein; designed switch direction (-1 OFF switch, 1 ON switch): 1; higher = weaker reporter binding
# settings: input ligand: FMN 200 uM
Cut-off 500 nM on apparent KD of MS2 coat protein, inclusive. At or above means label 1; below means label 0.

query_sequence | label
AUAUUCUUCCGCGACACCCACAUGAGGAUCACCCAUGUUGAACAGGAUAUGUAGUUCAUCUGAACACAGAAGGGUUAAAGGAAG [Eternabot solution 28] (Eterna round: R96, puzzle: Same State NG 3) | label 0
GGCCAGAGUCAAGGAUAUGCUACCGUUUCGGUAGCAGAAGGUGAUCACAUGAGGAUCACCCAUGUUUACUGCGAGAGCAUGGCC [JL SSNG1 3.68] (Eterna round: R96, puzzle: Same State NG 1) | label 1
CAGCACUAUCGAGAGGAUAUGCGGUGAUGGACAUGAGGAUCACCCAUGUUAGCGGUAGCAUCACGGCAGAAGGCUCUGCUGCUGC [Soteed Omei mod 39] (Eterna round: R96, puzzle: Same State 2) | label 0
GCUCGACUGAUGGCCUACAUGAGGAUCACCCAUGUGAUUGGGCAGGAUAUCUAGAUGCAGGAUGUAGAGAAGGGCCGGUCGAGC [SameState NG3 #46] (Eterna round: R96, puzzle: Same State NG 3) | label 0
GGUAGGUUACUACCAAACAUGAGGAUCACCCAUGUAAGUGGGAAGGAUAUGGUACCUUUUAGGUACCAGAAGGUCCAUAUAGUU [JL Fiskers NG3ss - 2 mod 9] (Eterna round: R96, puzzle: Same State NG 3) | label 0
GCGAGCGUACUUGCAACAUGAGGAUCACCCAUGUUAACUGGACAGGAUAUGGUACCGUUUCGGUACCAGAAGGGUUCCUCAUUG [JL SSNG3 3.63] (Eterna round: R96, puzzle: Same State NG 3) | label 0

---

# System: MS2 coat protein
# protocol_summary: apparent KD of MS2 coat protein; designed switch direction (-1 OFF switch, 1 ON switch): 1; higher = weaker reporter binding
# settings: Eterna round: R95; input ligand: microRNA oligo, concentration not stated
A collection of sequences and their measured apparent KD of MS2 coat protein

query_sequence | apparent KD of MS2 coat protein
GUCAGGUAAGCUUUUUUCUCGUAGUGUAAACAUGAGGAUCACCCAUGUGCUCACCCUGGAUCUUUGGAUCGCAGAAA [Atormace] (puzzle: Sensor for hsa-mir-208a) | 14.3 nM
AACAAUCUAUCUGAGGAUAUCAUGAUAAUAACAUGAGGAUCACCCAUGUGCAGGAAAACUGCAUAUGAGAAGGCAGAUAGAUUGG [Mat - Same State 2 - Mod - D20] (puzzle: Same State 2) | 29.4 nM
AGCGAGAUAGGCAAGGAUAUGCUGGGUUUCACAUGAGGAUCACCCAUGUCAUUGGUUAUGUCCGAGCAGAAGGUGCAUUCUCUUU [ak bound state multiloop solution 2] (puzzle: Same State 2) | 250 nM
GAGGAUGAUUUACAGGAUAUAUAGGAGAUGACAUGAGGAUCACCCAUGUAAGAGAGAGGAGGGAGAUAGAAGGGUAAGGGAUGUG [JR_SS2_Sub42] (puzzle: Same State 2) | 42.2 nM
AGUCCAGCCUAAGCUGGACAAAAGCAUGUACAUGAGGAUCACCCAUGUUCAUGUACAAGCUUUUUGCUCGUCUUAAA [Mat - hsa-mir-208a - Mod of JL - 54] (puzzle: Sensor for hsa-mir-208a) | 15.1 nM
AGAAGGAGAGCGCAGGAUAUCGAUAAUGACACAUGAGGAUCACCCAUGUUUGGUAUUAGAAGGAACGAGAAGGGUGAAAGGAGAA [knee_arm_01] (puzzle: Same State 2) | 59.8 nM
AAAAGACAUGAGGAUCACCCAUGUAUGAAAAGUACAGGAUAUCACGAGCUAAGAAGCGAGUGAGAAGGGUGAAAAU [Sogedi] (puzzle: Same State 1) | 69.1 nM
GAGAAUCUAUCUCAGGAUAUCAUGUCAAAGACAUGAGGAUCACCCAUGUACCAGGAAACUGGUUAUGAGAAGGGAGAUAGAUUCA [Mat - Same State 2 - Mod - D35] (puzzle: Same State 2) | 26.2 nM
ACAGAGGGAAGACAGGAUAUUCGCGAUGGCACAUGAGGAUCACCCAUGUUUUGAGCACAUAAACAGAAGAAGGGUUAAAACUCAG [Veceanve] (puzzle: Same State 2) | 132 nM
GUGGCCCAGGCACAGGAUAUGUUUCUCGUAACAUGAGGAUCACCCAUGUGCCUAUGAGAUUUUUUGCAGAAGGGUGCACGCCACG [JL Atiinbe mod 02] (puzzle: Same State 2) | 134 nM
UCUUGGUUUUUGCUCGUUUUUUGUGUUGAACAUGAGGAUCACCCAUGUAUUGUACGGUCCGAUUUAGUAGUGGUCCG [JMF 18] (puzzle: Sensor for hsa-mir-208a) | 14.5 nM
